B1: F1*; the commonest letter at each place (parent)
chain: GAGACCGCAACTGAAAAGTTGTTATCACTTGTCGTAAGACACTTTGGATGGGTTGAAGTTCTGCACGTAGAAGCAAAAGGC

Variants of: B1
Test: fraction ligated after 30 min (ligated reads / total reads); higher = more ligase activity
Settings: with F1*sub RNA substrate (template-directed ligation), 42 °C
Readout Name: fraction ligated
# answer = number (no unit)

Below are worked cases with known answers.
INSERT INTO results (mutation_label, test_value) VALUES
  ('T35G A48G', 0.79),
  ('T29A A39G', 0.845),
  ('T43G A56G', 0.717);

Q. If you can, please state the reported fraction ligated value of T23A G34T .
A. 0.812

Q. If you can, please state the reported fraction ligated value of G31T T35C .
A. 0.782

Q. If you can, please state the reported fraction ligated value of T25G G55C .
A. 0.0471
